Overview of reported pIC50 across a group of compounds:
Molecular target: UniProt Q96S37
Assay: URAT-1 inhibitor activity: [14C]-uric acid uptake in CHO-URAT1(L)GFP#8 (CHO#8) cells, scintillation proximity
Type: cell-based
Settings: inhibition of [14C]-uric acid (30 nM) uptake into CHO#8 cells; compound 0 to 10 μM; 4 parameter logistic fit
pIC50: −log10 of the molar value.
readout_name: pIC50

In [3]: df
Out[3]:
                                   compound  relation  experimental_value
0  Cc1cccc(C)c1Oc1ccc(S(=O)(=O)Nc2ccc(F)cn2)cc1C#N         =                7.30
1  COc1cc(F)ccc1Oc1ccc(S(=O)(=O)Nc2ccc(F)cn2)cc1C#N         <                5.00
2  Cc1cc(Cl)cc(Oc2ccc(S(=O)(=O)Nc3ccc(F)cn3)cc2C#N)c1         =                6.87
3  Cc1cc(Oc2ccc(S(=O)(=O)Nc3ccc(F)cn3)cc2C#N)cc(C)c1C#N [Example 79]         =                8.15
4  N#Cc1ccc(NS(=O)(=O)c2ccc(Oc3ccc(F)c(Cl)c3)c(C#N)c2)nc1         =                7.21
5  CCOc1cccc(Oc2ccc(S(=O)(=O)Nc3ccc(F)cn3)cc2C#N)c1         <                5.00
6  N#Cc1ccc(Oc2ccc(S(=O)(=O)Nc3ccc(F)cn3)c(F)c2)cc1F         =                7.54
7  N#Cc1c(Cl)cccc1Oc1ccc(S(=O)(=O)Nc2cnccn2)cc1         <                5.00
8  N#Cc1ccc(Oc2cc(F)c(S(=O)(=O)Nc3ccc(F)cn3)cc2Cl)cc1F         <                5.00
9  N#Cc1cc(S(=O)(=O)Nc2ccc(F)cn2)ccc1Oc1cc(C(F)(F)F)ccc1F         <                5.00

====

Target: URAT-1 transporter (Homo sapiens (Human), UniProt Q96S37)
Sequence (Q96S37 other isoform, or with tags, fused parts or gaps): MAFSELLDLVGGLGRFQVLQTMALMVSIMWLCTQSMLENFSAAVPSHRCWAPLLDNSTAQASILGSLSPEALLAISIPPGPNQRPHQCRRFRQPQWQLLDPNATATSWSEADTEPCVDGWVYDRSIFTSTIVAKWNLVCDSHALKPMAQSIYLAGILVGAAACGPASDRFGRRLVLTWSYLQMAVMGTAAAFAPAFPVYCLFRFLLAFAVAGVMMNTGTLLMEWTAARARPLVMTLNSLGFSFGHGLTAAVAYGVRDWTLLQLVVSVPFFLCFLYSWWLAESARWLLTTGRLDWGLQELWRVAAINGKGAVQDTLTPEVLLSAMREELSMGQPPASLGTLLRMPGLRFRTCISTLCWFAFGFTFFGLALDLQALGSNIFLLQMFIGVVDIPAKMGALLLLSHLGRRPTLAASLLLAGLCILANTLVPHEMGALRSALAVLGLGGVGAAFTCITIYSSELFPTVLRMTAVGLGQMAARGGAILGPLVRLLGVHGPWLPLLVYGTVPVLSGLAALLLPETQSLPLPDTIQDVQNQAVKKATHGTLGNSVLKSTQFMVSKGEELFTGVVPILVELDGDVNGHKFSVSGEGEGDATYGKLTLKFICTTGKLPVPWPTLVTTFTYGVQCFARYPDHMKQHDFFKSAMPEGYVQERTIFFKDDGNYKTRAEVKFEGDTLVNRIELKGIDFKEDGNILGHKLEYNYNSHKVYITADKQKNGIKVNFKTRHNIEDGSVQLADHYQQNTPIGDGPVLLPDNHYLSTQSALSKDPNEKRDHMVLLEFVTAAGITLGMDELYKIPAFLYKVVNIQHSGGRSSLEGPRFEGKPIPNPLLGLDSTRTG
Assay: URAT-1 inhibitor activity: [14C]-uric acid uptake in CHO-URAT1(L)GFP#8 (CHO#8) cells, scintillation proximity
Format: cell-based
Details: inhibition of [14C]-uric acid (30 nM) uptake into CHO#8 cells; compound 0 to 10 μM; 4 parameter logistic fit
Overview of reported IC50 across a group of molecules:
readout_name: IC50

>>> print(df.to_string())
                                    molecule                                 tested_on  experimental_value
 0  N#Cc1cc(Oc2cc(F)c(S(=O)(=O)Nc3ncc(F)cn3)cc2Cl)ccc1F [compound 214]  URAT-1 transporter (Homo sapiens (Human), UniProt Q96S37)           > 1150 nM
 1  CCOc1ncccc1Oc1ccc(S(=O)(=O)Nc2ccc(F)cn2)cc1C#N [Example 154]  URAT-1 transporter (Homo sapiens (Human), UniProt Q96S37)          > 10000 nM
 2  CC(C)Oc1ccc(F)cc1Oc1ccc(S(=O)(=O)Nc2ccc(F)cn2)cc1C#N [Example 156]  URAT-1 transporter (Homo sapiens (Human), UniProt Q96S37)          > 10000 nM
 3  N#Cc1cc(S(=O)(=O)Nc2ccc(F)cn2)ccc1Oc1ccc(C(F)(F)F)cc1 [Example 54]  URAT-1 transporter (Homo sapiens (Human), UniProt Q96S37)          > 10000 nM
 4  N#Cc1c(Cl)cccc1Oc1ccc(S(=O)(=O)Nc2cccnc2)cc1 [Example 219]  URAT-1 transporter (Homo sapiens (Human), UniProt Q96S37)          > 10000 nM
 5  CC(C)c1cccc(Oc2ccc(S(=O)(=O)Nc3ccc(F)cn3)cc2C#N)c1 [Example 57]  URAT-1 transporter (Homo sapiens (Human), UniProt Q96S37)          > 10000 nM
 6  N#Cc1cc(S(=O)(=O)Nc2ccc(F)cn2)ccc1Oc1cc(F)cc(F)c1Cl [Example 32]  URAT-1 transporter (Homo sapiens (Human), UniProt Q96S37)              212 nM
 7  CCc1ccccc1Oc1ccc(S(=O)(=O)Nc2ccc(F)cn2)cc1C#N [Example 46]  URAT-1 transporter (Homo sapiens (Human), UniProt Q96S37)              107 nM
 8  N#Cc1cc(S(=O)(=O)Nc2ccc(F)cn2)ccc1Oc1cc(F)ccc1F [Example 53]  URAT-1 transporter (Homo sapiens (Human), UniProt Q96S37)              191 nM
 9  COc1cccc(F)c1Oc1ccc(S(=O)(=O)Nc2ccc(F)cn2)cc1C#N [Example 111]  URAT-1 transporter (Homo sapiens (Human), UniProt Q96S37)               74 nM
10  N#Cc1ccc(Oc2ccc(S(=O)(=O)Nc3cncnc3)cc2C#N)cc1Cl [Example 96]  URAT-1 transporter (Homo sapiens (Human), UniProt Q96S37)          > 10000 nM
11  COc1ccc(F)c(Oc2ccc(S(=O)(=O)Nc3ccc(F)cn3)cc2C#N)c1 [Example 166]  URAT-1 transporter (Homo sapiens (Human), UniProt Q96S37)              116 nM
12  N#Cc1cc(S(=O)(=O)Nc2ccc(F)cn2)ccc1Oc1ccc(F)cc1 [Example 183]  URAT-1 transporter (Homo sapiens (Human), UniProt Q96S37)              183 nM
13  COc1cc(C#N)ccc1Oc1ccc(S(=O)(=O)Nc2ccc(F)cn2)cc1C#N [Example 204]  URAT-1 transporter (Homo sapiens (Human), UniProt Q96S37)          > 10000 nM
14  N#Cc1ccc(Oc2ccc(S(=O)(=O)Nc3ccncc3)cc2C#N)cc1Cl [Example 100]  URAT-1 transporter (Homo sapiens (Human), UniProt Q96S37)          > 10000 nM
15  N#Cc1cc(S(=O)(=O)Nc2ccc(F)cn2)ccc1Oc1ccc(OC(F)(F)F)cc1 [Example 35]  URAT-1 transporter (Homo sapiens (Human), UniProt Q96S37)          > 10000 nM
16  N#Cc1cc(S(=O)(=O)Nc2ccc(F)cn2)ccc1Oc1ccc(C(F)(F)F)nc1 [Example 196]  URAT-1 transporter (Homo sapiens (Human), UniProt Q96S37)          > 10000 nM
17  O=S(=O)(Nc1ncccn1)c1cc(Cl)c(Oc2ccc(Cl)cc2OC(F)F)cc1F [Example 83]  URAT-1 transporter (Homo sapiens (Human), UniProt Q96S37)           > 5970 nM

====

Target: UniProt Q96S37
Assay: URAT-1 inhibitor activity: [14C]-uric acid uptake in CHO-URAT1(L)GFP#8 (CHO#8) cells, scintillation proximity
Type: cell-based
Conditions: inhibition of [14C]-uric acid (30 nM) uptake into CHO#8 cells; compound 0 to 10 μM; 4 parameter logistic fit
pIC50: −log10 of the molar value.
readout_name: pIC50

In [3]: df
Out[3]:
                       smiles_representation  relation  experimental_value
 0  O=S(=O)(Nc1ncc(F)cn1)c1cc(Cl)c(Oc2ccc(F)c(F)c2)cc1F         <                5.00
 1  CCOc1ccc(Oc2ccc(S(=O)(=O)Nc3ccc(F)cn3)cc2C#N)cc1Cl         <                5.00
 2  N#Cc1ccc(Oc2cc(F)c(S(=O)(=O)Nc3cccnn3)cc2Cl)cc1Cl         <                5.00
 3  N#Cc1cc(S(=O)(=O)Nc2ccc(F)cn2)ccc1Oc1ccc(F)c(Cl)c1Cl         =                7.26
 4  N#Cc1cc(S(=O)(=O)Nc2ccc(F)cn2)ccc1Oc1ccc(Cl)c(F)c1         =                6.89
 5  COc1ccc(Oc2ccc(S(=O)(=O)Nc3ccc(F)cn3)cc2C#N)cc1C#N         =                6.87
 6  N#Cc1cc(F)ccc1Oc1ccc(S(=O)(=O)Nc2ccc(F)cn2)cc1C#N         =                6.62
 7  N#Cc1cc(S(=O)(=O)Nc2ccc(F)cn2)ccc1Oc1cccnc1         <                5.00
 8  Cc1cc(Oc2ccc(S(=O)(=O)Nc3ccc(F)cn3)cc2C#N)ccc1Cl         =                7.10
 9  N#Cc1cc(Oc2ccc(S(=O)(=O)Nc3ccc(F)cn3)cc2C#N)ccc1Cl         =                7.04
10  COc1cc(Cl)ccc1Oc1ccc(S(=O)(=O)Nc2ccc(F)cn2)cc1C#N         =                7.10
11  CSc1ccccc1Oc1ccc(S(=O)(=O)Nc2ccc(F)cn2)cc1C#N         =                6.30
12  CC(C)COc1ccc(Oc2ccc(S(=O)(=O)Nc3ccc(F)cn3)cc2C#N)cn1         <                5.00
13  Cc1ccc(Oc2ccc(S(=O)(=O)Nc3ccc(F)cn3)cc2C#N)cc1         =                5.70
14  Cc1cc(Oc2ccc(S(=O)(=O)Nc3ccc(F)cn3)cc2C#N)cc(C)c1Cl         =                7.02
15  COc1ccc(C)cc1Oc1ccc(S(=O)(=O)Nc2ccc(F)cn2)cc1C#N         =                6.72
16  Cc1cccc(Cl)c1Oc1ccc(S(=O)(=O)Nc2ccc(F)cn2)cc1C#N         =                7.04
17  Cc1cc(Cl)c(Oc2ccc(S(=O)(=O)Nc3ccc(F)cn3)cc2C#N)cc1C#N         =                7.24
18  N#Cc1cc(S(=O)(=O)Nc2ncccn2)ccc1Oc1ccc(F)c(F)c1         <                5.52
19  N#Cc1cc(S(=O)(=O)Nc2ccc(F)cn2)ccc1Oc1ccccc1OC(F)(F)F         =                6.56
20  CCOc1ncc(Oc2ccc(S(=O)(=O)Nc3ccc(F)cn3)cc2C#N)cc1Cl         =                6.63
21  COc1cc(F)c(F)cc1Oc1ccc(S(=O)(=O)Nc2ccc(F)cn2)cc1C#N         =                7.40
22  Cc1ccc(Oc2ccc(S(=O)(=O)Nc3ccc(F)cn3)cc2C#N)cc1Cl         =                6.68
23  COc1ccc(Oc2ccc(S(=O)(=O)Nc3ccc(F)cn3)cc2C#N)cn1         =                6.89
24  N#Cc1cc(S(=O)(=O)Nc2ccc(F)cn2)ccc1Oc1ccc(Cl)cc1OC(F)F         <                5.00
25  N#Cc1cc(F)c(Oc2ccc(S(=O)(=O)Nc3ccc(F)cn3)cc2C#N)cc1F         =                7.11
